system: OVCAR-8 complex spheroid, growth inhibition; experiment: Anticancer human tumor OVCAR-8 cell line growth inhibition [Asc]; settings: second compound 0.1 µM; first compound 1 µM; active compounds read low;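 note: spheroids exposed to agents for 7 days before readout; percent viability relative to DMSO vehicle wells taken as 100%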
Exercise: for every item that follows, state its recorded viability, T/C.
# output: bare number, implied unit %

Query string: viability, T/C for O=C(c1cc(Cc2n[nH]c(=O)c3ccccc23)ccc1F)N1CCN(C(=O)C2CC2)CC1 + Cc1c(S(C)(=O)=O)c(-c2cc(F)cc(N3CCN(c4ccc(NS(=O)(=O)c5ccc(NC(CCN6CCC(C(=O)OCCCP(=O)(O)O)CC6)CSc6ccccc6)c(S(=O)(=O)C(F)(F)F)c5)cc4)CC3)c2)c(-c2ccc(Cl)cc2)n1C(C)C ?
Result string: 98.2

Query string: viability, T/C for CCN1CCN(Cc2ccc(Nc3ncc(F)c(-c4cc(F)c5nc(C)n(C(C)C)c5c4)n3)nc2)CC1 + CNC(C)C(=O)NC1CN(S(=O)(=O)c2cccc(S(=O)(=O)N3CCC4CCC(C(=O)NC(c5ccccc5)c5ccccc5)N4C(=O)C(NC(=O)C(C)NC)C3)c2)CCC2CCC(C(=O)NC(c3ccccc3)c3ccccc3)N2C1=O ?
Result string: 111

Query string: viability, T/C for CNC(C)C(=O)NC1CN(S(=O)(=O)c2cccc(S(=O)(=O)N3CCC4CCC(C(=O)NC(c5ccccc5)c5ccccc5)N4C(=O)C(NC(=O)C(C)NC)C3)c2)CCC2CCC(C(=O)NC(c3ccccc3)c3ccccc3)N2C1=O (stereo unspecified) + Cc1c(S(C)(=O)=O)c(-c2cc(F)cc(N3CCN(c4ccc(NS(=O)(=O)c5ccc(NC(CCN6CCC(C(=O)OCCCP(=O)(O)O)CC6)CSc6ccccc6)c(S(=O)(=O)C(F)(F)F)c5)cc4)CC3)c2)c(-c2ccc(Cl)cc2)n1C(C)C ?
Result string: 59.7

Query string: viability, T/C for O=C(c1cc(Cc2n[nH]c(=O)c3ccccc23)ccc1F)N1CCN(C(=O)C2CC2)CC1 + CNC(C)C(=O)NC1CN(S(=O)(=O)c2cccc(S(=O)(=O)N3CCC4CCC(C(=O)NC(c5ccccc5)c5ccccc5)N4C(=O)C(NC(=O)C(C)NC)C3)c2)CCC2CCC(C(=O)NC(c3ccccc3)c3ccccc3)N2C1=O ?
Result string: 101

Query string: viability, T/C for C=CC(=O)N1CCN(c2nc(=O)n(-c3c(C)ccnc3C(C)C)c3nc(-c4c(O)cccc4F)c(F)cc23)C(C)C1 (stereo unspecified) + CNC(C)C(=O)NC1CN(S(=O)(=O)c2cccc(S(=O)(=O)N3CCC4CCC(C(=O)NC(c5ccccc5)c5ccccc5)N4C(=O)C(NC(=O)C(C)NC)C3)c2)CCC2CCC(C(=O)NC(c3ccccc3)c3ccccc3)N2C1=O ?
Result string: 86.1

Query string: viability, T/C for C=C(F)C(=O)N1CCN(c2nc(OCC3CCCN3C)nc3c2CCN(c2cccc4cccc(Cl)c24)C3)CC1CC#N (stereo unspecified) + Cc1c(S(C)(=O)=O)c(-c2cc(F)cc(N3CCN(c4ccc(NS(=O)(=O)c5ccc(NC(CCN6CCC(C(=O)OCCCP(=O)(O)O)CC6)CSc6ccccc6)c(S(=O)(=O)C(F)(F)F)c5)cc4)CC3)c2)c(-c2ccc(Cl)cc2)n1C(C)C ?
Result string: 111
